tgt: Gluoccocorticoid Receptor of the Rat Thymus (Rattus norvegicus)
Construct: The thymuses were removed and homogenized at 0° C; from tissue; host or cells: thymus of adrenalectomised male Sprague Dawley rats; high-speed supernatant of the homogenate
Sequence (P06536 whole entry): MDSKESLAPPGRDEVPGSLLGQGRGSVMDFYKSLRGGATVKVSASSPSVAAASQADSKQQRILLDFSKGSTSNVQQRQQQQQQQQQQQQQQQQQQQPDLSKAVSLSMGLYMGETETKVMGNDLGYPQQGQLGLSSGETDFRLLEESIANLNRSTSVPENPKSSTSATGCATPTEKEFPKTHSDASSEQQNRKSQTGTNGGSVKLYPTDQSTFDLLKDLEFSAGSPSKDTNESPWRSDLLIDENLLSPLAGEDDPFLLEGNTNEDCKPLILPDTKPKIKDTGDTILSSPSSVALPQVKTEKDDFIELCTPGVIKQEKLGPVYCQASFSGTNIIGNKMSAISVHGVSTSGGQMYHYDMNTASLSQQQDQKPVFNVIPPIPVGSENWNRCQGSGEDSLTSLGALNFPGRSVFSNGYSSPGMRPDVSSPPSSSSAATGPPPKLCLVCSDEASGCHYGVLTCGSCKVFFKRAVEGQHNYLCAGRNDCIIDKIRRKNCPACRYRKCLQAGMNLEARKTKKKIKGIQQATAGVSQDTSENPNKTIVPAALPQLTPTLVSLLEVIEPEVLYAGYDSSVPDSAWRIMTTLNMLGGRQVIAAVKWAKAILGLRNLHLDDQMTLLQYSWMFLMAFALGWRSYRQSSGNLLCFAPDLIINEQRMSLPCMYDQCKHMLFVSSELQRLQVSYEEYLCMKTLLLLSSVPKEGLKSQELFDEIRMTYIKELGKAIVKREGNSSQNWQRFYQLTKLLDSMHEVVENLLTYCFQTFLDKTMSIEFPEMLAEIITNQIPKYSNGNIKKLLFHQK
assay text: Relative bonding affinity (ARL), glucocorticoid receptor of the rat thymus
Type: binding, rat (male Sprague Dawley EOPS)
condition info: time of incubation at 0°: 4H; displacement of tritiated dexamethasone
measured endpoint: relative bonding affinity (ARL), Glucocorticoid

Previously resolved entries follow.
• C#Cc1ccc([C@H]2C[C@@]3(C)[C@@H](CC[C@@]3(O)C#CCl)[C@@H]3CCC4=CC(=O)CCC4=C32)cc1 = 84
• C#Cc1ccc([C@H]2C[C@@]3(C)[C@@H](CC[C@@]3(O)C#CCl)[C@@H]3CCC4=CC(=O)CC[C@]45O[C@]235)cc1 = 175

P = C#Cc1ccc([C@H]2C[C@@]3(C)[C@@H](CC[C@@]3(O)CC=C)[C@@H]3CCC4=CC(=O)CCC4=C32)cc1
Q = C#Cc1ccc([C@H]2C[C@@]3(C)[C@@H](CC[C@@]3(O)C#CC)[C@@H]3CCC4=CC(=O)CCC4=C32)cc1
**Query** Given P and Q , report the one with the higher recorded relative bonding affinity (ARL), Glucocorticoid. State the label of the item chosen.
**Result** Q

====

tgt: Progestogen Receptor of the Rabbit Uterus (Oryctolagus cuniculus)
Construct: The uteruses were removed, weighed and homogenized at 0° C; from tissue; host or cells: uterus of non-adult, estradiol-treated rabbits; high-speed supernatant of the homogenate
Sequence (P06186 1-930): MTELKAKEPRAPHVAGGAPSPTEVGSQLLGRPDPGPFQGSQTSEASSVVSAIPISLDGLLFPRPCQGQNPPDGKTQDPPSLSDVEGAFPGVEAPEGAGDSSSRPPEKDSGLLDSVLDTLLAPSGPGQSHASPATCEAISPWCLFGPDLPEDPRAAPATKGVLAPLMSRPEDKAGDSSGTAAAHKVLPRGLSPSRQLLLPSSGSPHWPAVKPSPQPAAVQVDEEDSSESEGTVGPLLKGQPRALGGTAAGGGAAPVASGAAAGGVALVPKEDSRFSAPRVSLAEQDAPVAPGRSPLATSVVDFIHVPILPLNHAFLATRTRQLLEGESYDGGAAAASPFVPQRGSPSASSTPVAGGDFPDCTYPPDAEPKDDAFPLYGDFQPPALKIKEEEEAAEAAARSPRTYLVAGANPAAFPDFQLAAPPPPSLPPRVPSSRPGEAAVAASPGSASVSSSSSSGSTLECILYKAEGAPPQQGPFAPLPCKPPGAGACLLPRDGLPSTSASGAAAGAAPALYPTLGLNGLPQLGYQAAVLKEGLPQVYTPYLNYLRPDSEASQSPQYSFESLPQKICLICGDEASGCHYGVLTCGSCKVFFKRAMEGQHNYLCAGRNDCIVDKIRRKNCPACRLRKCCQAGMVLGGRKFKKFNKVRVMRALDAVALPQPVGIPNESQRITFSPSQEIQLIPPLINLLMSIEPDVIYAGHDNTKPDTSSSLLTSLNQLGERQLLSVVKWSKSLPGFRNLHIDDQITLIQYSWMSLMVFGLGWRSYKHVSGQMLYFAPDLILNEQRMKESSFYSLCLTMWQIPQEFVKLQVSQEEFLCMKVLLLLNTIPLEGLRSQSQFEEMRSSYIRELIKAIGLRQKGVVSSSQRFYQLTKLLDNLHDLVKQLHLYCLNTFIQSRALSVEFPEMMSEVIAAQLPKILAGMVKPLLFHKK
assay text: Relative bonding affinity (ARL), progestogen receptor of the rabbit uterus
Format: binding
condition info: time of incubation at 0°: 2H; displacement of tritiated R
measured endpoint: relative bonding affinity (ARL), Progestogen

* C#Cc1ccc([C@H]2C[C@@]3(C)[C@@H](CC[C@@]3(O)CC=C)[C@@H]3CCC4=CC(=O)CCC4=C32)cc1 | 41
* C#Cc1ccc([C@H]2C[C@@]3(C)[C@@H](CC[C@@]3(O)C#CC)[C@@H]3CCC4=CC(=O)CCC4=C32)cc1 | 44
* C#Cc1ccc([C@H]2C[C@@]3(C)[C@@H](CC[C@@]3(O)C#CCl)[C@@H]3CCC4=CC(=O)CCC4=C32)cc1 | 51
* C#Cc1ccc([C@H]2C[C@@]3(C)[C@@H](CC[C@@]3(O)C#CCl)[C@@H]3CCC4=CC(=O)CC[C@]45O[C@]235)cc1 | 38

====

tgt: Progestogen Receptor of the Rabbit Uterus (Oryctolagus cuniculus)
Construct: The uteruses were removed, weighed and homogenized at 0° C; from tissue; host or cells: uterus of non-adult, estradiol-treated rabbits; high-speed supernatant of the homogenate
assay text: Relative bonding affinity (ARL), progestogen receptor of the rabbit uterus
Assay type: binding
condition info: time of incubation at 0°: 24H; displacement of tritiated R
measured endpoint: relative bonding affinity (ARL), Progestogen

Previously resolved entries follow.
- C#Cc1ccc([C@H]2C[C@@]3(C)[C@@H](CC[C@@]3(O)C#CCl)[C@@H]3CCC4=CC(=O)CC[C@]45O[C@]235)cc1 [Example 8]: 285
- C#Cc1ccc([C@H]2C[C@@]3(C)[C@@H](CC[C@@]3(O)CC=C)[C@@H]3CCC4=CC(=O)CCC4=C32)cc1 [Example 4]: 124

1 = C#Cc1ccc([C@H]2C[C@@]3(C)[C@@H](CC[C@@]3(O)C#CC)[C@@H]3CCC4=CC(=O)CCC4=C32)cc1 [Example 3]
2 = C#Cc1ccc([C@H]2C[C@@]3(C)[C@@H](CC[C@@]3(O)C#CCl)[C@@H]3CCC4=CC(=O)CCC4=C32)cc1 [Example 5]
**Query** Given 1 and 2 , report the one with the higher recorded relative bonding affinity (ARL), Progestogen. State the label of the item chosen.
**Result** 2

====

tgt: Gluoccocorticoid Receptor of the Rat Thymus (Rattus norvegicus)
Construct: The thymuses were removed and homogenized at 0° C; from tissue; host or cells: thymus of adrenalectomised male Sprague Dawley rats; high-speed supernatant of the homogenate
assay text: Relative bonding affinity (ARL), glucocorticoid receptor of the rat thymus
Format: binding, rat (male Sprague Dawley EOPS)
condition info: time of incubation at 0°: 24H; displacement of tritiated dexamethasone
measured endpoint: relative bonding affinity (ARL), Glucocorticoid

Previously resolved entries follow.
• C#Cc1ccc([C@H]2C[C@@]3(C)[C@@H](CC[C@@]3(O)C#CCl)[C@@H]3CCC4=CC(=O)CCC4=C32)cc1 = 153
• C#Cc1ccc([C@H]2C[C@@]3(C)[C@@H](CC[C@@]3(O)C#CCl)[C@@H]3CCC4=CC(=O)CC[C@]45O[C@]235)cc1 = 233

A = C#Cc1ccc([C@H]2C[C@@]3(C)[C@@H](CC[C@@]3(O)CC=C)[C@@H]3CCC4=CC(=O)CCC4=C32)cc1
B = C#Cc1ccc([C@H]2C[C@@]3(C)[C@@H](CC[C@@]3(O)C#CC)[C@@H]3CCC4=CC(=O)CCC4=C32)cc1
**Query** Given A and B , report the one with the higher recorded relative bonding affinity (ARL), Glucocorticoid. State the label of the item chosen.
**Result** B
